The origin of these recorded values is paper PMC8510097.

# TGT: SARS-CoV-2 3CLpro (Severe acute respiratory syndrome coronavirus 2)
# MEASUREMENT_NOTES: SARS-CoV-2 3CLpro inhibition assay, continuous fluorescence with FRET substrate UIVT3
# Format: biochemical
# SETUP_CONDITIONS: 10 min pre-incubation of enzyme with compound; read-out: SARS CoV-2 3CLpro IC50
pIC50: −log10 of the molar value.
Quick rule for you: pIC50 at 5 or higher means Criterion met, lower means Criterion not met.

# MOLECULE, CLASS
measured = [
    ("COc1ccc2cc([C@@H](C)C(=O)Oc3cncc(Cl)c3)ccc2c1 [C00003]", "Criterion met"),
    ("CC(C)Cc1ccc(C(C)C(=O)Oc2cncc(Cl)c2)cc1 (centres unmarked) [C00004]", "Criterion met"),
    ("CC(=O)Nc1cc(C(=O)Oc2cncc(Cl)c2)ccc1F [C00019]", "Criterion met"),
    ("Cc1cccc(C(=O)Oc2c(C)cccc2C(=O)Oc2cncc(Cl)c2)c1O [C00009]", "Criterion met"),
    ("O=C(Oc1ccccc1C(=O)Oc1cncc(Cl)c1)c1ccccc1O [C00007]", "Criterion not met"),
]
